assay_explanation: Study TMX-99-001: febuxostat plasma pharmacokinetics
Format: in vivo, human
conditions: human, plasma, oral, 180 mg, IR 180 mg single dose; mean; read-out: AUC0-4
assay_endpoint: partial AUC from 0 to 4 hours (ng·h/mL)
Numbers only, in ng·h/mL.

Specify partial AUC from 0 to 4 hours for Cc1nc(-c2ccc(OCC(C)C)c(C#N)c2)sc1C(=O)O and stop.
16800

----------
assay_explanation: Study TMX-99-001: febuxostat plasma pharmacokinetics
Type: in vivo, human
conditions: human, plasma, oral, 120 mg, IR 120 mg single dose; mean
assay_endpoint: MRT inf (h)
One number for each entry, in h.

Please look at this compound and report its MRT inf: Cc1nc(-c2ccc(OCC(C)C)c(C#N)c2)sc1C(=O)O
5.43
